This collection of values is drawn from ChEMBL document CHEMBL4190221.

# System: VSMC
# EXPERIMENT SUMMARY: Cytotoxicity against Sprague-Dawley rat VSMC assessed as decrease in cell viability at 5 to 10 uM after 24 hrs by MTT assay
# Assay type: cell-based

[
  {
    "SMILES STRUCTURE": "CO[C@H]1O[C@]23C=C[C@@H]4[C@@]1(CC[C@]1(C)[C@@H]([C@H](C)C/C=C/C(C)(C)OC)CC[C@@]41C)[C@@H]2CC[C@H](OC(=O)CC(=O)O)C3(C)C",
    "Activity": "Non-Toxic"
  },
  {
    "SMILES STRUCTURE": "CO[C@H](C=C(C)C)C[C@@H](C)[C@H]1CC[C@@]2(C)[C@@H]3[C@@H](OC)C=C4[C@@H](CC[C@H](OC(=O)CC(=O)O)C4(C)C)[C@]3(C=O)CC[C@]12C",
    "Activity": "Non-Toxic"
  },
  {
    "SMILES STRUCTURE": "COC(C)(C)/C=C/C[C@@H](C)[C@H]1CC[C@@]2(C)[C@@H]3[C@@H](O)C=C4[C@@H](CC[C@H](OC(=O)CC(=O)O)C4(C)C)[C@]3(C=O)CC[C@]12C",
    "Activity": "Non-Toxic"
  }
]
